B1: Azoarcus group I ribozyme (parent)
chain: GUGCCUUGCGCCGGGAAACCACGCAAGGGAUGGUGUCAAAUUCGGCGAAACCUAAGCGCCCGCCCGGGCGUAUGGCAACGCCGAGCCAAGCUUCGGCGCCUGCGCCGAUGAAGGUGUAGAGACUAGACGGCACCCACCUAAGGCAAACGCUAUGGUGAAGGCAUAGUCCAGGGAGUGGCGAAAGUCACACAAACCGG

- Variants of: B1
- test summary: reverse-splicing fitness (ratio to wild type); higher = more active; in vitro selection; Mg2+ level not given
measurement label: reverse-splicing fitness
API doc: respond with a numeric literal and nothing else, no unit.

Past entries and their recorded results:
C82U A111C A120U A145U C150G C169U U176G; 0.0025
C82A A111C A120G C150G C169U U176G; 0.00579
C82U A111G A120G C150U C169U U176A; 0.0221
C82U A120C A145U C169A; 0.00492
A120G C150A C169G U176A; 0.0606

Exam item: So what's the measured reverse-splicing fitness for this one? C82A A111C A120C A145G C150G U176G
Marked response: 0.00679

Exam item: So what's the measured reverse-splicing fitness for this one? C82U A111U A120C A145G C169A U176G
Marked response: 0.00456

Exam item: So what's the measured reverse-splicing fitness for this one? A111G A120C C150G C169A
Marked response: 0.00889

Exam item: So what's the measured reverse-splicing fitness for this one? C82A A111U A120G C150A C169A
Marked response: 0.0108

Exam item: So what's the measured reverse-splicing fitness for this one? C82U A120C A145U C150U C169U U176A
Marked response: 0.0148

Exam item: So what's the measured reverse-splicing fitness for this one? A111C A120G A145U C169U
Marked response: 0.174
